system: Pseudomonas aeruginosa ATTC 27853; assay type: cell-based; conditions: broth microdilution, MHB, 5 × 10^5 CFU/mL, overnight 37 °C, triplicate, higher of the three
Positions of bridges follow the written chain, without caps; N, C: chain ends. Non-standard residues stand in square brackets, D forms with d. Residues, ends and D or L forms follow the SMILES beside them. *: point of attachment. Decanoyl = CCCCCCCCCC(=O)*; X1 = CC[C@H](C)CCCCC(=O)*; Octanoyl = CCCCCCCC(=O)*; Dab = NCC[C@H](N)C(=O)O
endpoint.name: MIC PA (µg/mL)
The reply should contain only the number, in µg/mL.

Solved cases below.
Lab note: need MIC PA for CCCCCCCCCC(=O)N[C@@H](CCN)C(=O)N[C@H](C(=O)N[C@@H](CCN)C(=O)N[C@H]1CSSC[C@H](C(N)=O)NC(=O)[C@H](CCN)NC(=O)[C@H](CCN)NC(=O)[C@H](CC(C)C)NC(=O)[C@@H](CC(C)C)NC(=O)[C@H](CCN)NC1=O)[C@@H](C)O [spE-3] (Decanoyl-[Dab]T[Dab]C[Dab][dL]L[Dab][Dab][dC]-NH2; disulfide 4-10) on Pseudomonas aeruginosa ATTC 27853, anyone have it?
2

Lab note: need MIC PA for CC[C@H](C)CCCCC(=O)N[C@@H](CCN)C(=O)N[C@H](C(=O)N[C@@H](CCN)C(=O)N[C@H]1CCNC(=O)[C@H]([C@@H](C)O)NC(=O)[C@H](CCN)NC(=O)[C@H](CCN)NC(=O)[C@H](CC(C)C)NC(=O)[C@@H](Cc2ccccc2)NC(=O)[C@H](CCN)NC1=O)[C@@H](C)O [PxB, Polymyxin B, reference compound] (X1-[Dab]T[Dab][Dab][Dab][dF]L[Dab][Dab]T; lactam 4-C) on Pseudomonas aeruginosa ATTC 27853, anyone have it?
0.5

We next turn to a different molecule, shown below.
Lab note: need MIC PA for CCCCCCCC(=O)N[C@@H](CCN)C(=O)N[C@H](C(=O)N[C@@H](CCN)C(=O)N[C@H]1CSSC[C@H](C(N)=O)NC(=O)[C@H](CCN)NC(=O)[C@H](CCN)NC(=O)[C@H](CC(C)C)NC(=O)[C@@H](CC(C)C)NC(=O)[C@H](CCN)NC1=O)[C@@H](C)O [spE-2] (Octanoyl-[Dab]T[Dab]C[Dab][dL]L[Dab][Dab][dC]-NH2; disulfide 4-10) on Pseudomonas aeruginosa ATTC 27853, anyone have it?
4

====

test system: Pseudomonas aeruginosa ATTC 27853; type: cell-based; settings: broth microdilution, MHB, 5 × 10^5 CFU/mL, overnight 37 °C, triplicate, higher of the three
Positions of bridges follow the written chain, without caps; N, C: chain ends. Non-standard residues stand in square brackets, D forms with d. Residues, ends and D or L forms follow the SMILES beside them. *: point of attachment. Lauroyl = CCCCCCCCCCCC(=O)*; Decanoyl = CCCCCCCCCC(=O)*; dNle = CCCC[C@@H](N)C(=O)O; Nonanoyl = CCCCCCCCC(=O)*; X1 = CC[C@H](C)CCCCC(=O)*; Nle = CCCC[C@H](N)C(=O)O; Dab = NCC[C@H](N)C(=O)O
MIC PA reference
The reply should contain only the number, in µg/mL.

Value lookup for MIC PA; key = CCCCCCCCCCCC(=O)N[C@@H](CCN)C(=O)N[C@H](C(=O)N[C@@H](CCN)C(=O)N[C@H]1CSSC[C@H](C(N)=O)NC(=O)[C@H](CCN)NC(=O)[C@H](CCN)NC(=O)[C@H](CC(C)C)NC(=O)[C@@H](Cc2ccccc2)NC(=O)[C@H](CCN)NC1=O)[C@@H](C)O [spB-4] (Lauroyl-[Dab]T[Dab]C[Dab][dF]L[Dab][Dab][dC]-NH2; disulfide 4-10)
8

Value lookup for MIC PA; key = CC[C@H](C)CCCCC(=O)N[C@@H](CCN)C(=O)N[C@H](C(=O)N[C@@H](CCN)C(=O)N[C@H]1CCNC(=O)[C@H]([C@@H](C)O)NC(=O)[C@H](CCN)NC(=O)[C@H](CCN)NC(=O)[C@H](CC(C)C)NC(=O)[C@@H](CC(C)C)NC(=O)[C@H](CCN)NC1=O)[C@@H](C)O [PxE, Polymyxin E, reference compound] (X1-[Dab]T[Dab][Dab][Dab][dL]L[Dab][Dab]T; lactam 4-C)
0.5

Value lookup for MIC PA; key = CCCCCCCCC(=O)N[C@@H](CCN)C(=O)N[C@H](C(=O)N[C@@H](CCN)C(=O)N[C@H]1CSSC[C@H](C(N)=O)NC(=O)[C@H](CCN)NC(=O)[C@H](CCN)NC(=O)[C@H](CCCC)NC(=O)[C@@H](Cc2ccccc2)NC(=O)[C@H](CCN)NC1=O)[C@@H](C)O [spB-6] (Nonanoyl-[Dab]T[Dab]C[Dab][dF][Nle][Dab][Dab][dC]-NH2; disulfide 4-10)
1

***
Value lookup for MIC PA; key = CCCCCCCCCC(=O)N[C@@H](CCN)C(=O)N[C@H](C(=O)N[C@@H](CCN)C(=O)N[C@H]1CSSC[C@H](C(N)=O)NC(=O)[C@H](CCN)NC(=O)[C@H](CCN)NC(=O)[C@H](CCCC)NC(=O)[C@@H](CCCC)NC(=O)[C@H](CCN)NC1=O)[C@@H](C)O [spE-7] (Decanoyl-[Dab]T[Dab]C[Dab][dNle][Nle][Dab][Dab][dC]-NH2; disulfide 4-10)
2
